tgt: HLA-A2-R65A (Ala substitution for Arg65) (Homo sapiens, UniProt P04439, D140Y/D185E/D98H/E176V/E277Q/G131W/G231S/I119V/I121R/I166T/I218V/N151K/N90K/P208A/P217A/Q86G/Q94H/R138H/R169H)
protocol.text: Competitive peptide binding assay to mutant HLA-A2-R65A
Non-standard residues stand in square brackets, D forms with d. Residues, ends and D or L forms follow the SMILES beside them. pS = N[C@@H](COP(=O)(O)O)C(=O)O
measured.quantity: IC50 (nM)
Lab book: enter the figure in nM, no units written.

Specify measured IC50 for CC[C@H](C)[C@H](NC(=O)[C@H](CO)NC(=O)[C@H](C)NC(=O)[C@H](CCC(N)=O)NC(=O)[C@@H](N)CCCNC(=N)N)C(=O)N[C@@H](CCC(=O)O)C(=O)N[C@@H](CC(C)C)C(=O)N1CCC[C@H]1C(=O)N[C@@H](CO)C(=O)N[C@@H](CCSC)C(=O)O (H-RQASIELPSM-OH) .
2140

Look up and report measured IC50 for this entry: CC[C@H](C)[C@H](NC(=O)[C@H](COP(=O)(O)O)NC(=O)[C@H](C)NC(=O)[C@H](CCC(N)=O)NC(=O)[C@@H](N)CCCNC(=N)N)C(=O)N[C@@H](CCC(=O)O)C(=O)N[C@@H](CC(C)C)C(=O)N1CCC[C@H]1C(=O)N[C@@H](CO)C(=O)N[C@@H](CCSC)C(=O)O [RQApSIELPSM] (H-RQA[pS]IELPSM-OH)
20

Consider the compound CC[C@H](C)[C@H](NC(=O)[C@H](CO)NC(=O)[C@H](C)NC(=O)[C@H](CCC(N)=O)NC(=O)[C@H](C)N)C(=O)N[C@@H](CCC(=O)O)C(=O)N[C@@H](CC(C)C)C(=O)N1CCC[C@H]1C(=O)N[C@@H](CO)C(=O)N[C@@H](CCSC)C(=O)O and give its recorded IC50.
1060

Report measured IC50; entry is CC[C@H](C)[C@H](NC(=O)[C@H](COP(=O)(O)O)NC(=O)[C@H](C)NC(=O)[C@H](CCC(N)=O)NC(=O)[C@H](C)N)C(=O)N[C@@H](CCC(=O)O)C(=O)N[C@@H](CC(C)C)C(=O)N1CCC[C@H]1C(=O)N[C@@H](CO)C(=O)N[C@@H](CCSC)C(=O)O
972
